compounds and their reported IC50
Target: squalene synthetase (Homo sapiens, UniProt P37268)
Construct: From the resulting sonicate, microsome fraction was obtained according to the same manner as that described in Experiment 1; endogenous in cells; host or cells: HepG2 human hepatoma cells (microsome fraction)
Sequence (P37268 whole entry): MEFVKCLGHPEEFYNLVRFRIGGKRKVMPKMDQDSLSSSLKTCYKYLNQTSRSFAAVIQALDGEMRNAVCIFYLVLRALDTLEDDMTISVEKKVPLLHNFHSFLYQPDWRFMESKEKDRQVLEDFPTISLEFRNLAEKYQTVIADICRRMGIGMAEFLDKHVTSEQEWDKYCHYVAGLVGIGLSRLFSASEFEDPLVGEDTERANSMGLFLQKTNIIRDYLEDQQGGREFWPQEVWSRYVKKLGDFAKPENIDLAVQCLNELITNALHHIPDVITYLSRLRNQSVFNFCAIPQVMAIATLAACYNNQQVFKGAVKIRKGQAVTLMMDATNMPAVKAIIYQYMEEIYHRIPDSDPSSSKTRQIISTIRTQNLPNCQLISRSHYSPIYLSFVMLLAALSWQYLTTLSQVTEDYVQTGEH
Test: Squalene synthetase inhibitory activity, human enzyme (HepG2 microsome fraction)
Format: biochemical
Details: human hepatoma HepG2 microsome fraction; 5 μM [1-3H]farnesylpyrophosphoric acid, pH 7.4, 37° C., 45 minutes; read-out: IC50, squalene synthetase inhibitory activity, Human enzyme
test.readout: IC50 (nM)

{"columns": ["entry.smiles", "observed.value"],
 "data": [
  ["O=P(O)(O)C(NCCSCCc1ccccc1)P(=O)(O)O", 9.7],
  ["O=P(O)(O)C(NCCCCCCSc1ccccc1)P(=O)(O)O", 1.5],
  ["O=P(O)(O)C(NC1CCCCCC1)P(=O)(O)O", 6400]
]}

###

Molecular target: squalene synthetase (Rattus norvegicus)
Construct: from tissue; host or cells: liver of male SD rats (microsome fraction)
Sequence (Q02769 1-416): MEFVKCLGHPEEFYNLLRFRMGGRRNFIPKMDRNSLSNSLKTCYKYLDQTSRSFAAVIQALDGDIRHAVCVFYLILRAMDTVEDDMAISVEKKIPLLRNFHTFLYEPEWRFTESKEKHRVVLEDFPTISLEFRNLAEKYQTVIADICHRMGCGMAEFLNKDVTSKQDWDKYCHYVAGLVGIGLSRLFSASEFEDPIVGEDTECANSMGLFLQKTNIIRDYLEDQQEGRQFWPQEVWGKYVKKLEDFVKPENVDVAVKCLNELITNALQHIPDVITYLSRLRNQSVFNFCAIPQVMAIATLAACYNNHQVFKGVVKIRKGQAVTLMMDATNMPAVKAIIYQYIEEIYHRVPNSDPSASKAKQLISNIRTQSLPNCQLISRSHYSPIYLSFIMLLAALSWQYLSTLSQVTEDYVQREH
Assay: Squalene synthetase inhibitory activity, rat enzyme (rat liver microsome fraction)
Assay type: biochemical
Details: 5 μM [1-3H]farnesylpyrophosphoric acid, pH 7.4, 37° C., 45 minutes, read-out: IC50, squalene synthetase inhibitory activity, Rat enzyme
Entries annotated with measured IC50

{"columns": ["compound", "IC50"],
 "data": [
  ["O=P(O)(O)C(NCCCCCSc1ccccc1)P(=O)(O)O [compound 88]", "13 nM"],
  ["O=P(O)(O)C(NCCCCCC[S+]([O-])c1ccc2ccccc2c1)P(=O)(O)O (stereo not drawn)", "4.7 nM"],
  ["O=P(O)(O)C(NCCCCCCSc1nnc2ccccn12)P(=O)(O)O", "200 nM"]
]}

Data provenance: patent US5624917A
